src = BindingDB's records for patent WO2025045746

- Test system: NAD(+) hydrolase SARM1 [28-724] (UniProt Q6SZW1)
IC50 values by entry
The reply should be a number in nM, with the unit left off.

Please review the following examples before continuing.
{"Molecule": "O=C(c1cc(-c2ccncc2)n[nH]1)N1CCC(c2ccccc2)C1 (centres undefined)", "Reported metric": "IC50", "Obs value": 4510}
{"Molecule": "O=C(c1cc(-c2ccnnc2)n[nH]1)N1C[C@@H](F)[C@H](c2ccc(Cl)cc2)C1", "Reported metric": "IC50", "Obs value": 506}

Q: Determine reported IC50 for Cc1cnccc1-c1cc(C(=O)N2CC[C@H](c3ccc(Cl)cc3)C2)[nH]n1 ; test system: NAD(+) hydrolase SARM1 [28-724] (UniProt Q6SZW1).
Result: 2210

Q: Return reported IC50 for target or system NAD(+) hydrolase SARM1 [28-724] (UniProt Q6SZW1), item C[C@@H]1CN(C(=O)c2cc(-c3ccnnc3)n[nH]2)C[C@H]1c1ccc(Br)cc1 .
Result: 1360

----------
- Test system: NAD(+) hydrolase SARM1 [28-724] (UniProt Q6SZW1)
- Sequence (Q6SZW1 whole entry): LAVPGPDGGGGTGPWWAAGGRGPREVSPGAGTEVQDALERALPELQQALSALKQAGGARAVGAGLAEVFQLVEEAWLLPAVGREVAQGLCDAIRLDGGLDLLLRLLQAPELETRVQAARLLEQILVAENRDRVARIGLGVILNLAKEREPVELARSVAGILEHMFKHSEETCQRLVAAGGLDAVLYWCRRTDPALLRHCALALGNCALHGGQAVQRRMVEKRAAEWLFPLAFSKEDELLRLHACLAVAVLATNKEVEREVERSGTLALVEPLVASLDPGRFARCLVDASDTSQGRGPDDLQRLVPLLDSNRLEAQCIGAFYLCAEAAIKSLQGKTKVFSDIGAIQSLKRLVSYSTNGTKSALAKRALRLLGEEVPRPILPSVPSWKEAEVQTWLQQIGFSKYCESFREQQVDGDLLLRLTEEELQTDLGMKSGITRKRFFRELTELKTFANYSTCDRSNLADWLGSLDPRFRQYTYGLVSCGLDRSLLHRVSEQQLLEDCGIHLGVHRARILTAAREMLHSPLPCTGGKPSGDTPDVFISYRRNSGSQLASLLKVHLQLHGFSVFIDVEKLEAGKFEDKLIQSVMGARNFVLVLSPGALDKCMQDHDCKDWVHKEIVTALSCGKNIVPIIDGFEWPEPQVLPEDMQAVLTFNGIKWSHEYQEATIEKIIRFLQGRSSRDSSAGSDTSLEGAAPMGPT
Parameter: log10(IC50). Scope: all listed entries.
Please be aware that the numbers have been log10-transformed from IC50 in nM.

Examples from the recorded data:
{"Compound": "Cc1cnccc1-c1cc(C(=O)N2CC[C@@H](c3ccc(Cl)cc3)C2)[nH]n1 [WO2025045746, Example 56]", "log10(IC50)": 2.70}
{"Compound": "O=C(c1cc(-c2ccnnc2)n[nH]1)N1CCC(F)(c2ccc(F)c(F)c2)C1 (centres undefined) [WO2025045746, Example 23]", "log10(IC50)": 3.36}
{"Compound": "N#Cc1ccc(C2CCN(C(=O)c3cc(-c4ccnnc4)n[nH]3)C2)s1 (centres undefined) [WO2025045746, Example 40]", "log10(IC50)": 2.87}
{"Compound": "O=C(c1cc(-c2ccncc2)n[nH]1)N1CCC2(CCc3cc(Br)ccc32)C1 (centres undefined) [WO2025045746, Example 3]", "log10(IC50)": 3.50}
{"Compound": "O=C(c1[nH]nc(-c2ccnnc2)c1Cl)N1CC[C@@H](c2ccc(F)c(F)c2)C1 [WO2025045746, Example 49]", "log10(IC50)": 2.58}
{"Compound": "Cc1ccc(C2CCN(C(=O)c3cc(-c4ccnnc4)n[nH]3)C2)cc1 (centres undefined) [WO2025045746, Example 14]", "log10(IC50)": 3.46}

Q: Specify reported log10(IC50) for the compound shown: O=C(c1cc(-c2ccncc2)n[nH]1)N1CC[C@@H](c2ccc(Cl)cc2)C1 [WO2025045746, Example 27]
Result: 2.80

----------
- Test system: NAD(+) hydrolase SARM1 [28-724] (UniProt Q6SZW1)
Reported metric: IC50 (nM)
Kindly provide the numeric value in nM only, without the unit symbol.

{"Molecule": "O=C(c1cc(-c2ccncc2)n[nH]1)N1CCC(c2cccc(Cl)c2)C1 (configuration not stated) [WO2025045746, Example 7]", "Unit text": "nM", "Obs value": 1280}
{"Molecule": "N#Cc1ccc(C2CCN(C(=O)c3cc(-c4ccnnc4)n[nH]3)C2)cc1 (configuration not stated) [WO2025045746, Example 16]", "Unit text": "nM", "Obs value": 2170}

Q: State its IC50 for this molecule: O=C(c1cc(-c2ccnnc2)n[nH]1)N1C[C@H](CO)[C@@H](c2ccc(Cl)cc2)C1 [WO2025045746, Example 61]
Result: 1240

Q: Complete the entry with IC50 for O=C(c1cc(-c2ccnnc2)n[nH]1)N1CCC(c2ccc(Cl)nc2)C1 (configuration not stated) [WO2025045746, Example 19]
Result: 469

Q: Recall and state the measured IC50 for O=C(c1cc(-c2ccnnc2)n[nH]1)N1CCC(c2ccc(Cl)c(F)c2)C1 (configuration not stated) [WO2025045746, Example 39] .
Result: 73

Q: Retrieve IC50 measured for Cc1sc(C2CCN(C(=O)c3cc(-c4ccnnc4)n[nH]3)C2)cc1Br (configuration not stated) [WO2025045746, Example 55] and print it.
Result: 2170

Q: Please list IC50 recorded for the molecule O=C(c1cc(-c2ccnnc2)n[nH]1)N1C[C@@H](O)[C@H](c2ccc(Cl)cc2)C1 [WO2025045746, Example 30]
Result: 172

Q: Let me know recorded IC50 for O=C(c1[nH]nc(-c2ccnnc2)c1F)N1CC[C@@H](c2ccc(Cl)cc2)C1 [WO2025045746, Example 64] , thanks.
Result: 492

Q: Name the recorded IC50 of the molecule listed here: O=C(c1[nH]nc(-c2ccnnc2)c1Br)N1CC[C@H](c2ccc(Cl)cc2)C1 [WO2025045746, Example 58]
Result: 340

Q: Supply recorded IC50 for O=C(c1cc(-c2ccnnc2)n[nH]1)N1C[C@H](c2ccc(Cl)cc2)[C@@H](O)C1 [WO2025045746, Example 31] here.
Result: 761

Q: State its IC50: O=C(c1[nH]nc(-c2ccnnc2)c1F)N1CC[C@H](c2ccc(Cl)cc2)C1 [WO2025045746, Example 63]
Result: 95

Q: Answer with reported IC50 of O=C(c1cc(-c2ccnnc2)n[nH]1)N1C[C@H](c2ccc(Cl)cc2)[C@@H](F)C1 [WO2025045746, Example 76]
Result: 4500

----------
Reported IC50 values for a set of compounds
- Test system: NAD(+) hydrolase SARM1 [28-724] (UniProt Q6SZW1)
- Sequence (Q6SZW1 whole entry): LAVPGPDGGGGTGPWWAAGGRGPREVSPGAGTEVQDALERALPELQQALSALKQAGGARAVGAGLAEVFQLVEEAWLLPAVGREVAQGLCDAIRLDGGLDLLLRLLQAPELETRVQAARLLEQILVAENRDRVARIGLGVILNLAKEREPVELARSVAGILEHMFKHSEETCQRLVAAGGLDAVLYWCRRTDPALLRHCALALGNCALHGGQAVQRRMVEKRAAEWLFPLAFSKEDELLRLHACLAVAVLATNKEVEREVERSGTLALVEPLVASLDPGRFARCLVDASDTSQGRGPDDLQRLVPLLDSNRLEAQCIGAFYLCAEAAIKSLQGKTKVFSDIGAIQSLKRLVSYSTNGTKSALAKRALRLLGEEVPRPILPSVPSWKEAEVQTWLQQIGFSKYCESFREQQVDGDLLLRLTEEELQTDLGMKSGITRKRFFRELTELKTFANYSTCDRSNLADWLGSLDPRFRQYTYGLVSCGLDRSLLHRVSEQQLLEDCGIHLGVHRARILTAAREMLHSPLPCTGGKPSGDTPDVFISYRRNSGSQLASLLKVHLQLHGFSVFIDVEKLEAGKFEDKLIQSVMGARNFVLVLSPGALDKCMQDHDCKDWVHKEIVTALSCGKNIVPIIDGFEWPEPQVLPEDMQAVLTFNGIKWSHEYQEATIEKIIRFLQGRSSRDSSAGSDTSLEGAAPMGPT
Note: unit nM is implicit; provide only the numeric part.

Examples with their reported IC50 follow.
{"Compound": "Cc1ccc(C2CCN(C(=O)c3cc(-c4ccnnc4)n[nH]3)C2)s1 (stereo not given)", "Obs value": 1540}
{"Compound": "O=C(c1cc(-c2ccnnc2)n[nH]1)N1CCC(c2cnc(Cl)s2)C1 (stereo not given)", "Obs value": 1780}
{"Compound": "COc1cnccc1-c1cc(C(=O)N2CCC(c3ccc(Cl)cc3)C2)[nH]n1 (stereo not given)", "Obs value": 3050}

Q: Provide only the value of recorded IC50 for O=C(c1cc(-c2ccncc2)n[nH]1)N1CCC(c2ccc(F)cc2Cl)C1 (stereo not given)
Result: 458
